Structures can show the parent of a compound that is named as a salt.
recordedEndpoint: Ki

Prompt: Hello, I am looking for reported Ki with human factor VIIa (Homo sapiens) for CC(C)(CN(CC(=O)NC(CCCNC(=N)N)B1OC2CC3CC(C3(C)C)C2(C)O1)C(=O)CCc1ccccc1)c1ccccc1 (centres unmarked) [Example 56.1.1, HCl] . Could you help?
Response: < 0.5 µM

Prompt: Please tell me: Ki of COC(=O)CCC(=O)N(CCc1ccccc1)CC(=O)NC(CCCCN)B(O)O (centres unmarked) [Example 68.3.3, HCl] , system human factor VIIa (Homo sapiens)?
Response: < 50 µM

Prompt: Entry CN(CC(=O)NC(CCCCNC(=N)N)B1OC2CC3CC(C3(C)C)C2(C)O1)C(=O)c1ccccc1Sc1ccccc1C#N (centres unmarked) [Example 62.3.2, HCl] , system human factor VIIa (Homo sapiens): what Ki was measured?
Response: < 50 µM

Prompt: Item: CC1(C)C2CC3OB(C(CCCCN)NC(=O)CN(C(=O)CCc4ccccc4)C4CC4)OC3(C)C1C2 (centres unmarked) [Example 54.4.2, HCl] Test system: human factor VIIa (Homo sapiens) Read-out: Ki Value: ?
Response: < 0.5 µM

Prompt: Query the reported Ki for human factor VIIa (Homo sapiens); item: NCCCCC(NC(=O)CN(CCc1ccccc1)C(=O)CCCC(=O)O)B(O)O (centres unmarked) [Example 66.1.1, HCl]
Response: < 50 µM

Prompt: What value of Ki on human factor VIIa (Homo sapiens) does Cc1cc(C)cc(CCN(CC(=O)NC(CCCCN)B2OC3CC4CC(C4(C)C)C3(C)O2)C(=O)CCc2ccccc2)c1 (centres unmarked) [Example 54.4.1, HCl] have?
Response: < 50 µM

Prompt: Look up Ki with human factor VIIa (Homo sapiens) for this compound: CC(C)(CN(CC(=O)NC(CCCNC(=N)N)B(O)O)C(=O)CCc1ccccc1)c1ccccc1 (centres unmarked) [Example 55.1.1, HCl]
Sequence (P08709 213-466 limits assumed): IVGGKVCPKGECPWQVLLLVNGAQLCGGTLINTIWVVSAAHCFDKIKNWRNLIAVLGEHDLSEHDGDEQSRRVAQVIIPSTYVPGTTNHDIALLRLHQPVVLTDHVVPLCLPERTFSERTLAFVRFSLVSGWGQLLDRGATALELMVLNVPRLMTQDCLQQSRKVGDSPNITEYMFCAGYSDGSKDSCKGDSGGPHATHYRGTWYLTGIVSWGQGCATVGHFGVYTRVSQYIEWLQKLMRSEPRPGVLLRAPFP
Sequence (P08709 61-212 partner limits assumed): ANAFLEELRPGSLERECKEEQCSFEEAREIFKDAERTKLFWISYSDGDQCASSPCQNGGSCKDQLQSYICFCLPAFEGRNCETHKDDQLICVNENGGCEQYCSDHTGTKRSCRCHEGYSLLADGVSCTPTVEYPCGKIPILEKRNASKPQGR
Response: < 0.5 µM

Prompt: What reported Ki corresponds to CC1(C)C2CC3OB(C(CCCCN)NC(=O)CN(C(=O)CCC(=O)O)C(=O)CCc4ccccc4)OC3(C)C1C2 (centres unmarked) on human factor VIIa (Homo sapiens)?
Response: < 50 µM

---

- systemUnderTest: human factor Xa (Homo sapiens)
- Construct: 0.2-0.5 nM human thrombin or human factor Xa; purchased Enzyme Research Laboratories, South Bend, Ind
- Sequence (P00742 235-488 limits assumed): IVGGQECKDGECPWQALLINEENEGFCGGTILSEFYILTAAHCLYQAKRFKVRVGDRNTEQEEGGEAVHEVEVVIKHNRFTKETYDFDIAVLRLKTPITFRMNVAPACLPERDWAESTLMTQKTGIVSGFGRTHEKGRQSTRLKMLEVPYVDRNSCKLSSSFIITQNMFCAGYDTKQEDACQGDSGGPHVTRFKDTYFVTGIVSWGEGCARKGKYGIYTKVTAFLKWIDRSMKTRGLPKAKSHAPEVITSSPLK
- Sequence (P00742 41-179 partner limits assumed): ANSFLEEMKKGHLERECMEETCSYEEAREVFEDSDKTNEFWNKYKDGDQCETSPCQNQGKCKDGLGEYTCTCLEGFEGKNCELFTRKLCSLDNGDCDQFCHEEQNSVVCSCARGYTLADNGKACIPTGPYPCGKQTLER
- experimentSummary: Inhibition of Factor Xa hydrolysis of chromogenic substrate S2222 (Ki)
- Type: biochemical
- conditionContext: purified human factor Xa, 0.10 M sodium phosphate buffer, pH 7.5, HCl, read-out: Ki values for inhibition of Serine Proteases: Factor Xa
pKi: −log10 of the molar value. Counter-ions that a name gives are not always drawn.
recordedEndpoint: pKi

Prompt: So what does the record say about pKi for CC(C)(CN(CC(=O)NC(CCCCN)B(O)O)C(=O)CCc1ccccc1)c1ccccc1 (stereo not shown) [Example 59.1.1, HCl] ?
Response: > 4.30

---

- systemUnderTest: human factor Xa (Homo sapiens)
- Construct: 0.2-0.5 nM human thrombin or human factor Xa; purchased Enzyme Research Laboratories, South Bend, Ind
- experimentSummary: Inhibition of Factor Xa hydrolysis of chromogenic substrate S2222 (Ki)
- Format: biochemical
- conditionContext: purified human factor Xa, 0.10 M sodium phosphate buffer, pH 7.5, read-out: Ki values for inhibition of Serine Proteases: Factor Xa
Counter-ions that a name gives are not always drawn.
recordedEndpoint: Ki

Prompt: What value of measured Ki is listed for CCC(CC)(CN(CC(=O)NC(CCCCN)B1OC2CC3CC(C3(C)C)C2(C)O1)C(=O)CCc1ccccc1)c1ccccc1 (stereo not drawn) [Example 54.1.3, HCl] ?
Response: < 50 µM

Prompt: Given the compound COC(=O)CCC(=O)N(CC(=O)NC(CCCCN)B1OC2CC3CC(C3(C)C)C2(C)O1)C(=O)CCc1ccccc1 (stereo not drawn) [Example 54.3.1, HCl] , what is its reported Ki?
Response: < 50 µM

Prompt: Field request: Ki | item: CC1(C)C2CC3OB(C(CCCCN)NC(=O)CN(C(=O)CCc4ccccc4)C4CCCCC4)OC3(C)C1C2 (stereo not drawn) [Example 54.4.3, HCl]
Response: < 50 µM

Sourced from patent US6060462A
